A collection of compounds and their measured melting point

In [3]: df
Out[3]:
                                compound  endpointlabel       result
0  C=C(C)C(=O)OCCOc1ccc(/C=C/C(=O)OC)cc1  melting point  81 to 82 °C

Which melting point reading was recorded for the compound "CCOC(=O)C(=O)Nc1c(C)oc2ccccc2c1=O" ?
100 °C

Which melting point reading was recorded for the compound CC1Oc2ccccc2-n2cnc(-c3noc(C4CC4)n3)c21 (stereo not given) ?
162 °C

Which melting point reading was recorded for the compound "CCOC(=O)C(C(=O)OCC)c1cc(OC)ccc1[N+](=O)[O-]" ?
92 to 93 °C

Which melting point reading was recorded for the compound "Cc1ccc(CC2CCN(C(=O)c3cc(=O)c4cc(O)ccc4[nH]3)CC2)cc1" ?
152 °C

Which melting point reading was recorded for the compound "O=C(O)c1cccnc1N1CCc2ccccc2C1" ?
150 to 152 °C

Which melting point reading was recorded for the compound "Cc1ccc2nc(CN3CCN(c4ccc(Cl)cc4C#N)CC3)cn2c1" ?
135 to 136 °C

Which melting point reading was recorded for the compound "Cn1c(C(F)(F)F)cc(=O)n(-c2cc(OCC=C(Cl)Cl)c(Cl)cc2F)c1=O" ?
126 to 127 °C

Which melting point reading was recorded for the compound "O=[N+]([O-])c1ccc2onc(-c3ccccc3O)c2c1" ?
172 to 176 °C

Which melting point reading was recorded for the compound "CCCc1nc2c(C)cc(-c3nc4ccccc4n3C)cc2n1Cc1ccc(-c2ccccc2NC(=O)C(F)(F)F)cc1" ?
115 to 120 °C

----------
A collection of molecules and their measured melting point

In [3]: df
Out[3]:
                                   molecule         result
0                   CCN1C(=O)Cc2cc(Cl)cnc21    78 to 82 °C
1  Cc1oc(-c2cccs2)nc1COc1ccc(CCCCn2ccnc2)cc1    85 to 86 °C
2                       CCSCCCCCCCCCCC(=O)O    58 to 61 °C
3  O=C(Nc1cccc(-c2ccnc3c(C(=O)c4cccs4)cnn23)c1)c1cn[nH]c1  165 to 170 °C
4  CCCCc1nc2ccn(Cc3cccc(C(=N)N)c3)c(=O)c2n1Cc1ccc2ccc(C(=N)N)cc2c1  190 to 191 °C
5  Cc1cc(C)c2c(c1C)O[C@@H](C)[C@H]2c1ccc(C(C)C)cc1 (relative stereo)    79 to 80 °C

Which melting point reading was recorded for the molecule "Cc1cc(C(=O)CCCC(=O)c2cc(C)c(O)c(C(C)(C)C)c2)cc(C(C)(C)C)c1O" ?
156 to 158 °C

----------
A collection of compounds and their measured melting point

                                   compound         result
0  O=C(c1nccs1)c1cnn2c(-c3cccc(NC(=O)C4CC4)c3)ccnc12  226 to 229 °C
1          CNc1nc(C)c(-c2cn3cc(Cl)ccc3n2)s1  242 to 243 °C
2       CCc1nc(COc2ccc([N+](=O)[O-])cc2)cs1    79 to 80 °C
3  Cc1ccc(S(=O)(=O)Oc2ccc(C(C)(C)C)cc2C(C)(C)C)cc1          81 °C
4  CC(C(=O)c1ccc(OC2CCCCO2)cc1)c1ccccc1 (configuration not stated)    94 to 96 °C

Which melting point reading was recorded for the compound "CON=Cc1c(C(=O)OC)[nH]c2c(C)ccc(C)c12" ?
107 to 108 °C

Which melting point reading was recorded for the compound "O=C(c1ccc(F)c(F)c1)N1CCC[C@H](c2nc(-c3ccccc3)no2)C1" ?
149 to 151 °C

Which melting point reading was recorded for the compound "FC(F)(F)c1cc(Cl)c(-c2nc(Br)c[nH]2)c(Cl)c1" ?
224 to 225 °C

Which melting point reading was recorded for the compound "O=C(CCCC(=O)N1CCC[C@H]1C(=O)O)c1ccccc1" ?
102 to 105 °C

Which melting point reading was recorded for the compound "COC(=O)C=Cc1ccc(OCC2CCCCC2)cc1" ?
104 °C

Which melting point reading was recorded for the compound "CCCCc1ccc(CCCC(=O)O)cc1" ?
56 to 58 °C

Which melting point reading was recorded for the compound "CCN(c1ccc(C(=O)Nc2cn3cc(Cl)ccc3n2)cc1)S(C)(=O)=O" ?
245 to 247 °C

Which melting point reading was recorded for the compound CS(=O)c1cc(-c2ccc(C(F)(F)F)cc2)ccc1C#N (configuration not stated) ?
127 to 128 °C

Which melting point reading was recorded for the compound "CSc1ccc([C@@H](CC2CCCC2)C(=O)O)cc1Cl" ?
117 to 119 °C

Which melting point reading was recorded for the compound "CCCc1cc(-c2nc3c(s2)CCCO3)ccc1O" ?
152 to 154 °C

Which melting point reading was recorded for the compound "Cn1ccc(S(N)(=O)=O)n1" ?
156 to 158 °C

Which melting point reading was recorded for the compound Cc1cccc(CN2C(=O)C3(COc4cc5c(cc43)OCCO5)c3ccccc32)n1 (configuration not stated) ?
183 to 185 °C

Which melting point reading was recorded for the compound "O=C(O)c1cccc2c(Br)c(O)ccc12" ?
> 225 °C

Which melting point reading was recorded for the compound CCCCC1C=C(n2c3ccccc3c3ccccc32)c2ccccc2N1C(=O)c1ccc(OC)c(OC)c1 (configuration not stated) ?
174 to 175 °C

Which melting point reading was recorded for the compound "Cc1c(C(C)(C)C(=O)O)nc2ccc(NCCCN3CCC(OC(c4ccccc4)c4ccccc4)CC3)nn12" ?
219 to 220 °C

Which melting point reading was recorded for the compound "Nc1ccc(NC(=S)NC2CCCCC2)cn1" ?
147 to 149 °C

Which melting point reading was recorded for the compound "Cc1nc(-c2cc(Cl)ccc2Cl)n2c1nnc1ccc(N3CCCCC3)cc12" ?
158 to 160 °C

----------
endpointLabel: melting point

// solved cases for melting point follow
>>> df
                                   compound  endpointlabel    result
0  CN1C(=O)CC(c2ccc(CO)cc2)C1C(O)c1ccc(-c2ccccc2)s1 (stereo unspecified)  melting point    205 °C
1    Clc1cc(Cl)c2c(c1)[nH]c1c2ccc2cc[nH]c21  melting point  > 250 °C

Which melting point reading was recorded for the compound "CCOc1nsc(NC(=O)NC)c1C#N" ?
244 °C

----------
A collection of compounds and their measured melting point

// solved cases for melting point follow
>>> print(df.to_string())
                                   compound         result
0            O=c1[nH]c2cc(Cl)c(Cl)c(Cl)c2o1  253 to 254 °C
1     Oc1ccc(-c2nn(C3CCCC3)c3c(F)cccc23)cc1         131 °C
2  O=C1c2ccccc2S(=O)(=O)N1Cn1nnn(-c2ccccc2)c1=S  140 to 142 °C
3  CCOc1ccc(S(=O)c2ccccc2)cc1[N+](=O)[O-] (configuration not stated)  119 to 121 °C

Which melting point reading was recorded for the compound "COc1ccc(-c2[nH]nc3c2C(=O)c2c(NC(=O)Cc4ccccc4OC)cccc2-3)cc1" ?
255 °C

Which melting point reading was recorded for the compound "CCOC(=O)COc1ccccc1-c1nc2n(C3CCCC3)[nH]c(CC)c-2c(=O)n1" ?
116 to 117 °C

Which melting point reading was recorded for the compound COc1ccc(C(O)CN2CCNC2=O)cc1OC (configuration not stated) ?
166 °C

Which melting point reading was recorded for the compound "CC1(C)CCC(C)(C)c2cc(COc3cccc(C(=O)O)c3-c3ccc(CCO)cc3)ccc21" ?
201 to 203 °C

Which melting point reading was recorded for the compound "CCOC(=O)c1cnc([N+](=O)[O-])n1C" ?
65 to 66 °C

----------
A collection of compounds and their measured melting point

Which melting point reading was recorded for the compound "CON1CCC2(CC1)C(O)=C(c1c(C)cc(C)cc1C)C(=O)N2C" ?
171 to 178 °C

----------
endpointLabel: melting point

// solved cases for melting point follow
>>> print(df.to_string())
                                   compound         result
0  Cc1oc(-c2ccccc2)nc1COc1ccc(CN(O)C(N)=O)c(Cl)c1  145 to 147 °C
1  CN(C)C(=O)COc1ccc2c(c1)C[C@@H](NC(=O)OCc1ccccc1)CC2  117 to 118 °C
2  CC(=O)Nc1ccc2c3c(cccc13)S(=O)(=O)N2CCCCl         205 °C
3  O=C(O)CCCc1ccc(C(Cc2ccccc2)NS(=O)(=O)c2ccc(Cl)cc2)cc1 (stereo not given)  152 to 153 °C
4  COC(=O)c1c(C(=O)OC)c(-c2ccc(OC)c(OC)c2)c2c(OC)c(OC)c(OC)cc2c1O  178 to 179 °C
5  O=C(c1ccc(OCCN2CCCCC2)cc1)c1c(-c2ccc(O)cc2)ccc2ccccc12  167 to 170 °C
6  O=C1C2C3CCC(C3)C2C(=O)C1[N+](=O)[O-] (stereo not given)         167 °C
7  O=C1Nc2cc(F)ccc2C12COc1cc3c(cc12)CCO3 (stereo not given)  249 to 251 °C
8      CC(=O)Oc1ccc(CCc2ccc(OC(C)=O)cc2)cc1  115 to 116 °C
9  CCOC(=O)c1cn(C2CC2)c2c(F)c(F)c(Cl)cc2c1=O  169 to 172 °C

Which melting point reading was recorded for the compound "CCOC(=O)c1ncn2c1c(=O)n(C)c1ncccc12" ?
233 to 234 °C

Which melting point reading was recorded for the compound "CCN1c2ccccc2NC(=O)c2cscc21" ?
201 to 202 °C

Which melting point reading was recorded for the compound COc1ccc(C2CCc3cc(OC)ccc3C2CCO)cc1 (stereo not given) ?
95 °C

Which melting point reading was recorded for the compound "CN(C)Cc1nnc2n1-c1sc(Cl)cc1C(c1ccccc1[N+](=O)[O-])=NC2" ?
234 to 236 °C
